Origin of measurements: patent US3984410A

Tested on: housefly (Musca domestica L.)
procedure summary: Housefly mortality, residue on aluminum dishes
Assay type: in vivo
measurement conditions: 25 3-day old female houseflies; mortality after 48 hours
reported metric: Insecticide Activity - Approximate LD50, HF (Housefly) (μg/25 F.)
Report only the number, with the unit μg/25 F. understood.

Input: State, in one line, measured Insecticide Activity - Approximate LD50, HF (Housefly) of C=CCN(C(=NC(=O)CSP(=S)(OC)OC)OC)c1ccccc1 [Compound 11]
Output: 30

Input: State, in one line, measured Insecticide Activity - Approximate LD50, HF (Housefly) of CCN(CC)C(=NC(=O)CSP(=S)(OC)OC)OC [Compound 6]
Output: 24

Input: State, in one line, measured Insecticide Activity - Approximate LD50, HF (Housefly) of CCOP(=S)(OCC)SCC(=O)N=C(OC)N(CC)c1ccccc1 [Compound 15]
Output: 30

Input: State, in one line, measured Insecticide Activity - Approximate LD50, HF (Housefly) of COC(=NC(=O)CSP(=S)(OC)OC)N(C)Cc1ccccc1 [Compound 13]
Output: 30

Input: State, in one line, measured Insecticide Activity - Approximate LD50, HF (Housefly) of CCOP(=S)(OCC)SCC(=O)N=C(OC)N(CC)c1cccc(C)c1 [Compound 18]
Output: 22

Input: State, in one line, measured Insecticide Activity - Approximate LD50, HF (Housefly) of CCOP(=S)(OCC)SCC(=O)N=C(OC)N1CCOCC1 [Compound 4]
Output: 27

Input: State, in one line, measured Insecticide Activity - Approximate LD50, HF (Housefly) of CCOP(=S)(OCC)SCC(=O)N=C(OC)N(CC)CC [Compound 5]
Output: 23

Input: State, in one line, measured Insecticide Activity - Approximate LD50, HF (Housefly) of CCN(C(=NC(=O)CSP(=S)(OC)OC)OC)c1cccc(C)c1 [Compound 19]
Output: 62

Input: State, in one line, measured Insecticide Activity - Approximate LD50, HF (Housefly) of C=CCN(CC=C)C(=NC(=O)CSP(=S)(OC)OC)OC [Compound 2]
Output: 8

Input: State, in one line, measured Insecticide Activity - Approximate LD50, HF (Housefly) of CCOP(=S)(OCC)SCC(=O)N=C(OC)N(C)c1ccccc1 [Compound 8]
Output: 30

---

I'd appreciate it if you could supply Insecticide Activity - Approximate LD50, LB (Lygus Bug) values for the items below.
System: Lygus Bug [Lygus hesperus (Knight)]
procedure summary: Lygus Bug spray
Assay type: in vivo
measurement conditions: spray on adult bugs; mortality after 48 hours
Protocol: Test compounds are in a 50--50 acetone-water solution. Two cc of the solutions are sprayed through a Devilbiss type EGA hand spray gun into circular cardboard cages containing one string bean pod and ten adult lygus bugs. The test cages are covered on the bottom with cellophane and the top with tulle netting. Percent mortality is recorded 48 hours later. Test concentrations range from 0.05% down to that at which approximately 50% mortality occurs.

Input: State, in one line, measured Insecticide Activity - Approximate LD50, LB (Lygus Bug) of CCOP(=S)(OCC)SCC(=O)N=C(OC)N(CC)CC
Output: > .05%

Input: State, in one line, measured Insecticide Activity - Approximate LD50, LB (Lygus Bug) of CCOP(=S)(OCC)SCC(=O)N=C(OC)N(C)Cc1ccccc1
Output: > .05%

Input: State, in one line, measured Insecticide Activity - Approximate LD50, LB (Lygus Bug) of CCOP(=S)(OCC)SCC(=O)N=C(OC)N(CC)c1cccc(C)c1
Output: > .05%

Input: State, in one line, measured Insecticide Activity - Approximate LD50, LB (Lygus Bug) of CCN(C(=NC(=O)CSP(=S)(OC)OC)OC)c1cccc(C)c1
Output: > .05%

Input: State, in one line, measured Insecticide Activity - Approximate LD50, LB (Lygus Bug) of CCOP(=S)(OCC)SCC(=O)N=C(OC)N1CCOCC1
Output: .05%

Input: State, in one line, measured Insecticide Activity - Approximate LD50, LB (Lygus Bug) of CCOP(=S)(OCC)SCC(=O)N=C(OC)N(C)c1ccccc1
Output: > .05%

Input: State, in one line, measured Insecticide Activity - Approximate LD50, LB (Lygus Bug) of CCN(CC)C(=NC(=O)CSP(=S)(OC)OC)OC
Output: > .05%

Input: State, in one line, measured Insecticide Activity - Approximate LD50, LB (Lygus Bug) of CCN(C(=NC(=O)CSP(=S)(OC)OC)OC)c1ccccc1
Output: > .05%

Input: State, in one line, measured Insecticide Activity - Approximate LD50, LB (Lygus Bug) of CCOP(=S)(OCC)SCC(=O)N=C(OC)N1CCCCC1
Output: .05%

Input: State, in one line, measured Insecticide Activity - Approximate LD50, LB (Lygus Bug) of C=CCN(CC=C)C(=NC(=O)CSP(=S)(OCC)OCC)OC
Output: .05%

Input: State, in one line, measured Insecticide Activity - Approximate LD50, LB (Lygus Bug) of C=CCN(CC=C)C(=NC(=O)CSP(=S)(OC)OC)OC
Output: > .05%

Input: State, in one line, measured Insecticide Activity - Approximate LD50, LB (Lygus Bug) of C=CCN(C(=NC(=O)CSP(=S)(OC)OC)OC)c1ccccc1
Output: > .05%

Input: State, in one line, measured Insecticide Activity - Approximate LD50, LB (Lygus Bug) of CCOP(=S)(OCC)SCC(=O)N=C(OC)N(CC)c1ccccc1
Output: > .05%

Input: State, in one line, measured Insecticide Activity - Approximate LD50, LB (Lygus Bug) of COC(=NC(=O)CSP(=S)(OC)OC)N(C)Cc1ccccc1
Output: > .05%

Input: State, in one line, measured Insecticide Activity - Approximate LD50, LB (Lygus Bug) of C=CCN(C(=NC(=O)CSP(=S)(OCC)OCC)OC)c1ccccc1
Output: .05%
